- experimental-system: human recombinant Yes [a.a. 2–543 (end)] (Homo sapiens, UniProt P07947)
- Construct: human recombinant Yes [a.a; 2–543 (end)]; purchased BPS Bioscience 40488
- Sequence (P07947 2-543): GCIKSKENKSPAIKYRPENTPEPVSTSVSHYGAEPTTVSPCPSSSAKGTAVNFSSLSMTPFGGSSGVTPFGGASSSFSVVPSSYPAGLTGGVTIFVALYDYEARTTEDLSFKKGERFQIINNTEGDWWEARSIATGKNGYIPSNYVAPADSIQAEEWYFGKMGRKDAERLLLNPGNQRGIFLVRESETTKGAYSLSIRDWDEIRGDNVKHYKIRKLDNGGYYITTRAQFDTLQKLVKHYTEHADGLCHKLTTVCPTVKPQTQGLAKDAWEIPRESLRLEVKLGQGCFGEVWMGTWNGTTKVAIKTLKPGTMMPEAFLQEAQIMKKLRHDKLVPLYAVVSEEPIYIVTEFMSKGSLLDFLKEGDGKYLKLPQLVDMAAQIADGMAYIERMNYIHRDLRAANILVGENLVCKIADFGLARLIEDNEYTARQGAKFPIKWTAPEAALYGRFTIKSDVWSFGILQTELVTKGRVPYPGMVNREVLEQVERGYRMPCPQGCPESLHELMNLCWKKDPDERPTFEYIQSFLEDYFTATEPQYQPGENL
- procedure-details: ADP-Glo kinase assay, inhibition rates of Yes phosphorylation activity (first and second screening)
- Format: biochemical
- condition-details: first screening; mean of n = 4 wells; 10 μmol L−1 compound
measurement-kind: First screening IR (inhibition rate) (%)

1. O=C(COc1c(Br)cc(Br)c2cccnc12)N1CCCCC1 = 5
2. O=C1CCCN1c1ccc(Nc2nccc(C(F)(F)F)n2)cc1 = -12

1. Cc1cc(N2CCN(C(=O)Nc3cc(C)c4cn[nH]c4c3)CC2)nc(C)n1
2. CC(C)(C)Oc1cccc(CN2CCC(c3c[nH]c4ncccc34)CC2)n1
3. Cn1ccnc1C(O)(CC(=O)Nc1ccc(Oc2ncccn2)cc1)C(F)(F)F (centres unmarked)
Input: Sequence the entries by First screening IR (inhibition rate), beginning with the highest number. Use the labels to give the ranking in the order requested.
Output: 1, 2, 3
(1: 42%, 2: 12%, 3: -7%)

----------
- experimental-system: human recombinant Yes [a.a. 2–543 (end)] (Homo sapiens, UniProt P07947)
- Construct: human recombinant Yes [a.a; 2–543 (end)]; purchased BPS Bioscience 40488
- procedure-details: ADP-Glo kinase assay, inhibition rates of Yes phosphorylation activity (first and second screening)
- Type: biochemical
- condition-details: second screening, dissolved from fresh powder; n = 4; 10 μmol L−1 compound
measurement-kind: Second screening IR (inhibition rate) (%)

1. CC(C)(C)Cc1cc(NC(=O)c2cnn(-c3ccccc3Cl)c2)n[nH]1 = 21

a. Cc1cc(N2CCc3c(ncn3C3CC3)C2)c2cc(OC(F)F)ccc2n1
b. O=C(Nc1cc(C(F)(F)F)ccc1N1CCCCC1)c1ccc(Cl)c(S(=O)(=O)Nc2ccccc2C(=O)Nc2cc(C(F)(F)F)ccc2N2CCCCC2)c1
Input: Among a and b , whose measured Second screening IR (inhibition rate) is the smaller figure? Selection: enter the item's label.
Output: b
(b: -10%, a: 50%)

A. Cl.Oc1ccc(-c2cc(-c3ccccc3)c3cc(Cl)ccc3n2)cc1
B. CS(=O)(=O)c1ccc(S(=O)(=O)Cl)cc1
C. Cc1ccc(/C=C/C2=Cc3c(sc(N)c3C#N)C(C)(C)C2)o1
Input: Sequence the entries by Second screening IR (inhibition rate), beginning with the highest number. Use the labels to give the ranking in the order requested.
Output: C, A, B
(C: 36%, A: -2%, B: -3%)

a. O=C(CSc1ccc2ccccc2n1)Nc1nsc(-c2ccc(Cl)cc2)n1
b. Cc1ccc(-c2cc(-c3ccccc3)c3cc(Cl)ccc3n2)cc1.Cl
Input: Larger number for Second screening IR (inhibition rate): a , or b ? Selection: enter the item's label.
Output: a

----------
- experimental-system: human recombinant Yes [a.a. 2–543 (end)] (Homo sapiens)
- Construct: human recombinant Yes [a.a; 2–543 (end)]; purchased BPS Bioscience 40488
- procedure-details: ADP-Glo kinase assay, inhibition rates of Yes phosphorylation activity (first and second screening)
- Format: biochemical
- condition-details: first screening; mean of n = 4 wells; 10 μmol L−1 compound
measurement-kind: First screening IR (inhibition rate) (%)

// worked examples, First screening IR (inhibition rate) included
1) O=P(/C=C(\Cl)c1ccccc1)(/C=C(/Cl)c1ccccc1)Nc1cccc(S(=O)(=O)NCc2ccco2)c1 [Compound Z56773378] = -1
2) COc1ccc(/C(O)=C2\C(=O)C(=O)N(CCCn3ccnc3)C2c2cccnc2)cc1OC (centres unmarked) [Compound Z335452550] = -9
3) Cc1ccc(Nc2nccc(C(F)(F)F)n2)cc1S(=O)(=O)N(C)C [Compound Z318799754] = 6
4) Cc1cc(S(C)(=O)=O)c(C)c(S(=O)(=O)N2CCCC(C)C2)c1 (centres unmarked) [Compound Z1145185785] = 14
5) CCCn1c(/C(Cl)=C/c2ccc(F)c(F)c2)nc2cc(S(=O)(=O)N3CCOCC3)ccc21 [Compound Z95254533] = 14

A. O=C(Nc1ccc(N2CCCCC2)c(S(=O)(=O)Nc2ccc(Cl)cc2)c1)c1ccc(S(=O)(=O)NCc2ccco2)cc1 [Compound Z32729001]
B. Cc1ccc(-c2cc(C(=O)NC(C)c3ccccn3)c3cnn(C(C)C)c3n2)cc1 (centres unmarked) [Compound Z225035912]
C. CC(C)CN(C1CCS(=O)(=O)C1)S(=O)(=O)c1ccc(Cl)cc1 (centres unmarked) [Compound Z45480638]
D. Cc1cc(CN2CCSCC2)ccc1NC(=O)c1ccnc(N(C)C)c1 [Compound Z978895402]
Input: Sequence the entries by First screening IR (inhibition rate), beginning with the highest number. Use the labels to give the ranking in the order requested.
Output: B, C, D, A
(B: 16%, C: 1%, D: 0%, A: -5%)

----------
- experimental-system: human recombinant Yes [a.a. 2–543 (end)] (Homo sapiens, UniProt P07947)
- Construct: human recombinant Yes [a.a; 2–543 (end)]; purchased BPS Bioscience 40488
- procedure-details: ADP-Glo kinase assay, inhibition rates of Yes phosphorylation activity (first and second screening)
- Assay type: biochemical
- condition-details: first screening; mean of n = 4 wells; 10 μmol L−1 compound
measurement-kind: First screening IR (inhibition rate) (%)

// worked examples, First screening IR (inhibition rate) included
1. CC(=O)N1CCN(c2nc(C(F)(F)F)nc3ccsc23)CC1 = 6
2. O=[N+]([O-])c1ccc2nc(CSc3ccc(C(F)(F)F)cn3)[nH]c2c1 = 7

1. COc1ccc(/C=C/c2noc(C)c2NC(=O)c2cccs2)cc1
2. CCc1ccc(S(=O)(=O)N(C)C2CCS(=O)(=O)C2)cc1 (stereo not shown)
Input: Larger number for First screening IR (inhibition rate): 1 , or 2 ? Selection: enter the item's label.
Output: 2
(2: 10%, 1: 4%)

----------
- experimental-system: human recombinant Yes [a.a. 2–543 (end)] (Homo sapiens, UniProt P07947)
- Construct: human recombinant Yes [a.a; 2–543 (end)]; purchased BPS Bioscience 40488
- procedure-details: ADP-Glo kinase assay, inhibition rates of Yes phosphorylation activity (first and second screening)
- Type: biochemical
- condition-details: second screening, dissolved from fresh powder; n = 4; 10 μmol L−1 compound
measurement-kind: Second screening IR (inhibition rate) (%)

1. O=C(C1=C(O)C(=O)N(CCCn2ccnc2)C1c1cccc([N+](=O)[O-])c1)c1ccco1 (stereo not shown) [Compound Z57237939] = -11

I. O=C(/C=C/c1cccs1)Nc1cc(-c2cccc([N+](=O)[O-])c2)sc1C(=O)O [Compound Z204342158]
II. COc1ccc(/C=N/Nc2ccnc3cc(Cl)ccc23)cc1O [Compound Z49625943]
III. CS(=O)(=O)c1ccccc1S(=O)(=O)Cl [Compound Z271096440]
Input: I would appreciate it if you could sort these 3 compounds by Second screening IR (inhibition rate), starting from the smallest number. Use the labels to give the ranking in the order requested.
Output: II, I, III

----------
- experimental-system: human recombinant Yes [a.a. 2–543 (end)] (Homo sapiens, UniProt P07947)
- Construct: human recombinant Yes [a.a; 2–543 (end)]; purchased BPS Bioscience 40488
- procedure-details: ADP-Glo kinase assay, inhibition rates of Yes phosphorylation activity (first and second screening)
- Assay type: biochemical
- condition-details: first screening; mean of n = 4 wells; 10 μmol L−1 compound
measurement-kind: First screening IR (inhibition rate) (%)

// worked examples, First screening IR (inhibition rate) included
1) CN(C)c1ccc(NC(=O)N(C)C2CS(=O)(=O)c3ccc(Cl)cc32)cn1 (centres unmarked) = -9
2) CCOc1ccc(-n2c(O)c3ccc(C(=O)N=C4N=c5ccccc5=N4)cc3c2O)cc1 = -4

P. CCN(C1CCS(=O)(=O)C1)S(=O)(=O)c1ccc(C)c(C)c1 (centres unmarked)
Q. CC(C)c1cccc(NS(=O)(=O)c2ccc(-n3ncc(Cl)c(Cl)c3=O)cc2)c1
R. O=C1CN(c2nc(C(F)(F)F)nc3ccsc23)CCN1
Input: Sequence the entries by First screening IR (inhibition rate), beginning with the highest number. Use the labels to give the ranking in the order requested.
Output: R, P, Q
(R: 26%, P: 10%, Q: 6%)

P. CCN1CCN(S(=O)(=O)C2CS(=O)(=O)c3ccccc32)CC1 (centres unmarked)
Q. COC(=O)c1cc(-c2ccccc2F)nc2c1cnn2C(C)C
Input: Larger number for First screening IR (inhibition rate): P , or Q ? Selection: enter the item's label.
Output: P

----------
- experimental-system: human recombinant Yes [a.a. 2–543 (end)] (Homo sapiens, UniProt P07947)
- Construct: human recombinant Yes [a.a; 2–543 (end)]; purchased BPS Bioscience 40488
- procedure-details: ADP-Glo kinase assay, inhibition rates of Yes phosphorylation activity (first and second screening)
- Format: biochemical
- condition-details: first screening; mean of n = 4 wells; 10 μmol L−1 compound
measurement-kind: First screening IR (inhibition rate) (%)

// worked examples, First screening IR (inhibition rate) included
1) CC1CN(CCCNc2ccc([N+](=O)[O-])c3nonc23)CC(C)O1 (stereo not shown) = 4
2) CCN(CC(=O)N1N=C(c2ccc(OC)cc2)CC1c1ccco1)Cc1nc2ccccc2c(=O)[nH]1 (stereo not shown) = -6
3) CCOC(=O)/C=c1\s/c(=C/c2ccc(N3CCOCC3)c([N+](=O)[O-])c2)c(=O)n1CC(=O)N1CCC(C)CC1 = -4
4) CC(CCN1CCN(c2ccccc2)CC1)NC(=O)c1cc(-c2ccco2)nc2c1cnn2C(C)C (stereo not shown) = 62
5) O=C(Nc1nnc(SCc2ccc(F)cc2)s1)c1cccnc1Cl = 3

P. O=C(Cc1cccc(F)c1)NNC(=O)Cn1c(COc2ccc(Cl)cc2)nc2ccccc21
Q. O=S(=O)(c1ccccc1Cl)N1CCN(Cc2nc(-c3cccc(Cl)c3)no2)CC1
R. Fc1cc(NCc2cn[nH]c2-c2cccnc2)ccc1-n1ccnc1
S. O=C1Nc2cc(Cl)ccc2/C1=C\c1cnn(-c2ccccc2)c1
Input: I would appreciate it if you could sort these 4 compounds by First screening IR (inhibition rate), starting from the smallest number. Use the labels to give the ranking in the order requested.
Output: Q, P, S, R

P. CC(C)c1noc2nc(-c3ccncc3)cc(C(=O)O)c12
Q. Cc1ccc(-c2c3c(nc4sc5c(c24)CCC5)CCC(C(C)(C)C)C3)cc1.Cl (stereo not shown)
R. CNc1snc(C)c1C(=O)NC(C)c1sc(-c2ccc(F)cc2)nc1C (stereo not shown)
S. CC1(CCc2ccccc2)NC(=O)N(NC(=O)c2ccc(-n3cnc4ccccc43)cc2)C1=O (stereo not shown)
Input: Sequence the entries by First screening IR (inhibition rate), beginning with the highest number. Use the labels to give the ranking in the order requested.
Output: R, S, Q, P

a. CC(=O)NC12CC3CC(C1)CC(C(=O)Oc1ccc(N(C)S(=O)(=O)c4cc(C)ccc4C)cc1)(C3)C2
b. CC(C)(C)c1ccc(NC(=O)/C=C/c2cncc(O)c2)cc1
Input: Larger number for First screening IR (inhibition rate): a , or b ? Selection: enter the item's label.
Output: b
